- MEASURED_TARGET: fusion glycoprotein of the RSV used in the neutralization assay of Example 1 (respiratory syncytial virus (strain not stated))
- EXPERIMENTAL_PROTOCOL: cell-based or functional assay
Listing of recorded RSV Neutralization - IC50 by entry.
Units required after the number.

Solved entries:
MPK189 (antibody, V domains shown) VH: QVQLVQSGAEVKKPGESLKISCKGSGYSFINYWIGWVRQMPGKGLEWMGIIYPFDSDTKYSPSFQGHVTISADKSINTAYVQWSSLKASDTAMYYCARFTFGIAVVTDDVSDEGHAFDIWGQGTMVTVSS VL: EIVMMQSPATLSVSPGERATLSCRASQSVAGNLAWYQQRPGQAPRLLIYGASTRATGVPARFSGSGSETEFTLTISSLQSEDFAVYYCQQYSNWPQAFGQGTRLDIK; 1.2 ng/mL
MPK126 (antibody, V domains shown) VH: EVQLVESGGGLVKPGGSMRLSCAASGVTLSGYYMIWIRQAPGKGLEWISDISASSTYTDYADSVKGRFTVSRDNSQNTVYLQMNSLRAEDTAVYYCATEQTPSPGPFDLWGQGTLVTVSS VL: QSVLTQPPSVSGAPGQRVTISCTGSSSNVGAGYDVHWYQQFPGTSPKLLIYRNTNRPSGVPDRFSGFKSGTSASLAITGLEAEDEADYYCQSYDRSLSGWVFGAGTKLTVL; 26.4 ng/mL
MPK167 (antibody, V domains shown) VH: EVQLVQSGPEVKKPGESLKISCKASGYSFINYWIGWVRQMPGKGLEWMGIIYPFDSDTQYSPSFQGHVTISADKSINTAYVQWSSLKASDTAMYYCARFTFGIAVVAGDVSGEGHAFDIWGQGTMVTVSS VL: EIVMMQSPATLSVSPGERATLSCRASQSVAGNLAWYQQSPGQAPRLLIYGASTRATGVPARFSGSGSETEFTLTISSLQSEDFAVYFCQQYSNWPHAFGQGTRLDIK; 1 ng/mL

Query block: # query: RSV Neutralization - IC50 of entry MPK157 (antibody, V domains shown) VH: EVQLVESGGGLVKPGGSLRLSCSASGFTLSGYNMNWVRQAPGKGLEWISYISASSSYINYADSVKGRFTISRDNGRSSLYLQMNSLRAEDTAVYFCTTQAELPGWFDPWGQGTLVTVSS VL: QSVLTQPPSMSGAPGQRVTISCTGSSSNIGAGYDVNWYRQLPGTAPQLLIYRNTNRPSGVPDRFSGSNSGTSASLAITGLQADDEAHYYCQSYDRSLSGWVFGGGTKLTVL
Result block: 24.1 ng/mL

Query block: How about this binder: MPK178 (antibody, V domains shown) VH: EVQLVQSGAEVKKPGESLKISCRASGYSFVNYWIGWVRQVPGKGLEWMGFIYPFDSDTQYSPSFQGHVTISADKSINTAYLQWSSLRASDTAIYYCARFTFGIALVAGDVTGGGQAFEVWGQGTLVSVSS VL: DIVMTQSPVTLSVSPGERATLSCRASQSVAGNLAWYQQRPGQAPRLLIYAASTRATGVPARFSGSGSETEFTLTISSLQSEDFAVYYCHHYSNWPQAFGQGTRLDIK
Result block: 1 ng/mL

// data source = patent US20260028391A1
